Each record here notes measured T/C.
System: P388 leukemia ip, CD2F1 mice, survival T/C
Assay: NCI In Vivo Anticancer Drug Screen. Data for tumor model P388 Leukemia (intraperitoneal) in CD2F1 (CDF1) mice
Conditions: endpoint: median survival time; dose: 6.25 mg/kg/injection; schedule: Q01DX005 (ip); vehicle: Klucel (hydroxypropylcellulose) (HPC); higher = longer survival
Description: The antitumor activity of compounds was measured in mice bearing transplantable tumors. Survival or tumor size were measured and the results are expressed as the measurement made in the treated group (T) divided by the measurement made in the vehicle treated control group (C). The tumor model used in this assay is P388 Leukemia (intraperitoneal) in CD2F1 (CDF1) mice
Toxic doses and inconclusive results are not listed.

{"Compound": "COc1ccc(-c2nn3c(=O)c(Cc4ccccc4)c(O)nc3nc2-c2ccccc2)cc1", "T/C": "103 % of control"}
{"Compound": "CN=C(NC)c1ccc(NC(=O)c2cc(OC)cc(C(=O)Nc3ccc(C(=NC)NC)cc3)c2)cc1", "T/C": "100 % of control"}
{"Compound": "O=C1C=CC(=O)C(Sc2cccc3ccccc23)=C1", "T/C": "96 % of control"}
{"Compound": "O=C(O)/C(Cl)=C(Cl)\\C=N\\c1ncn[nH]1", "T/C": "104 % of control"}
{"Compound": "[CH3][Sn]([CH3])([n]1cnc2ccccc21)[n]1cnc2ccccc21", "T/C": "115 % of control"}
{"Compound": "OC1C(O)C(O)C(O)C(O)C1O.[Cu+2].[Cu] (stereo not given)", "T/C": "93 % of control"}
{"Compound": "COC1CC(OC2CCC3(C)C(CCC45CCC(C6=CC(=O)OC6)C(C)(CCC43)C5=O)C2)OC(C)C1O (stereo not given)", "T/C": "100 % of control"}
{"Compound": "Cc1cccc(/C=C/C(=O)C(CN(C)C)CN(C)C)c1", "T/C": "104 % of control"}

P388 leukemia ip, CD2F1 mice, survival T/C / T/C / N[C@@]1(C(F)(F)F)N[C@](N)(C(F)(F)F)C(F)(F)C(F)(F)C1(F)F : value?
102 % of control

Now consider CC(C)(C)NCC(CN1CCOCC1)C(=O)c1ccccc1 (stereo not given) .
99 % of control
